MEASURED_ON: GABARAPL2, P60520
Sequence (P60520 whole entry, the tested form may be a part): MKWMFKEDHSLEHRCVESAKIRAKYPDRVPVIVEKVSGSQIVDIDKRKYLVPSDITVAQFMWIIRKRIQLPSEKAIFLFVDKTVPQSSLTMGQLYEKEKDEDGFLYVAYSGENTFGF
ASSAY_REMARKS: median log2 fold change of GCK-ALFA target abundance (FLAG IP / Myc IP barcode read proportion) (log2 ratio); each designed protein is fused to an ALFA-tag nanobody in HEK293 cells to bring the named protein to FLAG-tagged glucokinase (GCK); Myc marks an untargeted standard; higher = target protein stabilised (more abundant)
COND: target protein: 3xFLAG-MCP-GCK-ALFA reporter; HEK293 landing pad (RPLP)
MEASURED_QUANTITY: median log2 fold change

# BINDER, MEASURED_QUANTITY, VALUE_REPORTED
measured = [
    ("GBRAPL2_0_7229 (protein) IEEEIEEMKKLSIEEAAKRAVELVKEMAESGKYSLEEIAEFVEKAAEVLGEKLKEEKKEEGLDIAAEAADEIRKILSKIDPNLAAYAASEIGSEIMEVIS", "median log2 fold change", -0.0242),
    ("GBRAPL2_54_7381 (protein) AKKVEIVADFIVEGTPEELAKVEKVATELSKKLAEELAAKYGATSTLSFEREDGVLLLTVTIVTDESAVDDVLDRLEELRDEIEKRTGVKVNLVIGIKEL", "median log2 fold change", -0.18),
    ("GBRAPL2_151_7316 (protein) EWKEEALKALEEGAKAVEEFAKSLPESEELERTELELLAGGLDAYKALIEETDDEEEIRRLLKEAAELVEDAAEIAKKLGREEAAKKLEKIAKKLKELAE", "median log2 fold change", 0.266),
    ("GBRAPL2_0_7203 (protein) YLEEIEKAKSLSPEELFKKLKELVKKLAEDKSISPEEKEEILEAIIKLAGEKVKETKTEETEKQFDEIVELAVEVAEKIDPNLAAYIRTLAGSLLYENES", "median log2 fold change", 0.0798),
]
